Test system: T-47D breast
ASSAY_SUMMARY: NCI tumour cell line growth inhibition, 48 h
Entries and their GI50 values follow.
PARAMETER: GI50

molecule=O=C(N/N=C/c1ccc(Cl)cc1Cl)c1ccc2nc(-c3ccc(Cl)cc3)[nH]c2c1 system_name="T-47D breast" test_value="1.79 µM"
molecule="COc1cccc(C2SC(C)C(=O)N2CCc2cccs2)c1 (stereo not given)" system_name="T-47D breast" test_value="1.78 µM"
molecule=COc1cc2c3c(n(CCCBr)c(=O)c2cc1OC)-c1ccc(F)cc1C3=O system_name="T-47D breast" test_value="4.86 µM"
molecule=CCNNC(=O)[C@@H]1[C@H](c2cc(OC)c(OC)c(OC)c2)c2cc3c(cc2[C@H](O)[C@H]1CO)OCO3 system_name="T-47D breast" test_value="> 100 µM"
molecule=COc1c(Cl)ccc2c(-c3nc4cc(Cl)c(F)cc4s3)cc(=O)oc12 system_name="T-47D breast" test_value="13 µM"
molecule=NCCCN1CCN(CCCNc2nc3ccccc3c3[nH]c4ccccc4c23)CC1 system_name="T-47D breast" test_value="0.561 µM"
molecule="CSc1ccc(SC2c3ccc(C)cc3Oc3nc(N)c(C#N)c(N)c32)cc1 (stereo not given)" system_name="T-47D breast" test_value="1.9 µM"
molecule=Clc1ccc(CNc2nccc(-c3cnn4ncccc34)n2)cc1 system_name="T-47D breast" test_value="5.26 µM"
molecule="COc1cc(C2CC(=O)Nc3c2ccc2ccccc32)cc(Br)c1OC (stereo not given)" system_name="T-47D breast" test_value="0.811 µM"
molecule=O=C(CCSc1ccnc2c(C(F)(F)F)cccc12)N/N=C/c1cc(Cl)c(Cl)cc1Cl system_name="T-47D breast" test_value="22 µM"

====

Below, each of the compounds is paired with its reported TGI value.
System: T-47D breast
ASSAY_SUMMARY: NCI tumour cell line growth inhibition, 48 h
PARAMETER: TGI

compound="CN(C)CC1CCC/C(=C\\c2ccc(OC(=O)/C=C/c3ccc(Cl)c(Cl)c3)cc2)C1=O (stereo not drawn)" test_value="6.75 µM"
compound=O=C1CS[C@@](CC(c2ccc(Cl)cc2)c2ccc(Cl)cc2)(c2ccc(Cl)cc2)N1 test_value="> 100 µM"
compound="c1ccc(B2OCC(C3OB(c4ccccc4)OC4COB(c5ccccc5)OC43)O2)cc1 (stereo not drawn)" test_value="> 100 µM"
compound=N#CC[N+]1(Cc2ccccn2)CCCC1 test_value="> 100 µM"
compound="CCOC(=O)CCC(NC(=O)Cc1ccc(Oc2nc3ccccc3nc2-c2ccccc2)cc1)C(=O)OCC (stereo not drawn)" test_value="99.7 µM"
compound="CN(Cc1cnc2nc(N)nc(N)c2n1)c1ccc(C(=O)NC(CCC(=O)NC(CC(P(=O)(O)O)P(=O)(O)O)C(=O)O)C(=O)O)cc1 (stereo not drawn)" test_value="> 100 µM"
compound=CCCCCCCCCCCCCCCCCCOc1ccccc1CC(=O)NCC[N+](C)(C)C test_value="58.9 µM"
compound=CCOC(=O)C(=CN1CCNC1=S)C(=O)OCC test_value="> 100 µM"

====

Test system: OVCAR-3 ovarian
ASSAY_SUMMARY: NCI tumour cell line growth inhibition, 48 h
Short version: TGI at least 6 µM is yes (1), less is no (0).

molecule=Nc1c(C(=O)N/N=C/c2ccc(-c3cc(Cl)c(Cl)cc3Cl)o2)cnn1-c1ccnc2c(C(F)(F)F)cccc12 label_class="yes (1)"
molecule="NC(CC(O)(c1ccccc1)c1ccccc1)c1ccccc1S (stereo not drawn)" label_class="yes (1)"
molecule=N#C/C(=C\c1c(-c2ccccc2)[nH]c2ccccc12)C(=O)c1ccccc1 label_class="no (0)"
molecule=Nc1ccc(C(OC(=O)c2cc3ccccc3c(Cc3c(O)c(C(=O)OC(c4ccc(N)cc4)(c4ccc(N)cc4)c4ccc(N)cc4)cc4ccccc34)c2O)(c2ccc(N)cc2)c2ccc(N)cc2)cc1 label_class="no (0)"
molecule=COc1ccc(-c2ccc(-c3ccc(C(=N)N)cn3)o2)cc1Cl label_class="no (0)"
molecule=COc1ccc(CNc2nc3cc(C(F)(F)F)ccc3nc2-c2ccccc2)cc1OC label_class="yes (1)"
molecule="CN(C)CC1CCC/C(=C\\c2ccc(OC(=O)/C=C/c3ccc(Cl)c(Cl)c3)cc2)C1=O (stereo not drawn)" label_class="yes (1)"

====

Test system: SF-539 CNS
ASSAY_SUMMARY: NCI tumour cell line growth inhibition, 48 h
PARAMETER: TGI (µM)

compound="O=C(Nc1ccc(Br)cc1)C(=O)C(C(=O)c1ccccc1F)C1OC(=O)c2ccccc21 (centres undefined)" parameter=TGI op== test_value=66.9
compound="CC(NC(=O)C(=O)N/N=C1\\C[C@@H](c2ccccc2)Nc2ccccc21)c1ccccc1 (some centres undefined)" parameter=TGI op=> test_value=100
compound="COc1cccc(C2SC(C)C(=O)N2CCc2cccs2)c1 (centres undefined)" parameter=TGI op== test_value=13.6
compound="CCOC(=O)C(NC(=O)CC)(Nc1ccc(F)c(Cl)c1)C(F)(F)F (centres undefined)" parameter=TGI op=> test_value=100
compound=Nc1ccc2ccc(-c3ccc[nH]3)nc2n1 parameter=TGI op=> test_value=100
compound="COc1ccc(C2SCC(=O)N2NC(=O)C(C)Oc2ccccc2C)cc1 (centres undefined)" parameter=TGI op=> test_value=100
compound=Cn1c(=O)c(C(=O)NC(=O)NCCCCCOC(=O)CCCCCCCCCCC(=O)OCCCCCNC(=O)NC(=O)c2cn(Cc3ccccc3)c(=O)n(C)c2=O)cn(Cc2ccccc2)c1=O parameter=TGI op=> test_value=100
compound="CSc1ccc(SC2c3ccc(C)cc3Oc3nc(N)c(C#N)c(N)c32)cc1 (centres undefined)" parameter=TGI op== test_value=2.98
compound=CCOc1ccc(/C=C2\NC(=S)N(/C=C3\C(=O)Oc4ccccc4C3=O)C2=O)cc1 parameter=TGI op== test_value=36.5

====

Test system: PC-3 prostate
ASSAY_SUMMARY: NCI tumour cell line growth inhibition, 48 h
PARAMETER: GI50

smiles_code=N#Cc1nc2c(S(=O)(=O)c3ccccc3)c(N)n(Cc3ccc(Cl)cc3)c2nc1C#N system_name="PC-3 prostate" test_value="18300 nM"
smiles_code=COc1ccc(Cn2cc3c(c2-c2cc(OC)c(OC)c(OC)c2)CCc2cnoc2-3)cc1N system_name="PC-3 prostate" test_value="75.1 nM"
smiles_code=Nc1ccc(C(OC(=O)c2cc3ccccc3c(Cc3c(O)c(C(=O)OC(c4ccc(N)cc4)(c4ccc(N)cc4)c4ccc(N)cc4)cc4ccccc34)c2O)(c2ccc(N)cc2)c2ccc(N)cc2)cc1 system_name="PC-3 prostate" test_value="1220 nM"
smiles_code=Cc1ccc(Nc2cc(C)nc(NCCCNc3ccnc4cc(Cl)ccc34)n2)cc1 system_name="PC-3 prostate" test_value="1570 nM"

====

Parameter TGI: see the listing below.
Tested on: HCC-2998 colon
ASSAY_SUMMARY: NCI tumour cell line growth inhibition, 48 h
PARAMETER: TGI

compound=O=C(N/N=C/c1ccc(Cl)cc1Cl)c1ccc2nc(-c3ccc(Cl)cc3)[nH]c2c1 test_value="3.44 µM"
compound=COc1ccc(-c2ccc(-c3ccc(C(=N)N)cn3)o2)cc1Cl test_value="3.38 µM"
compound=N#Cc1nc2c(S(=O)(=O)c3ccccc3)c(N)n(Cc3ccc(Cl)cc3)c2nc1C#N test_value="10.8 µM"
compound=COc1ccc2c(c1)c1nn(CCN3CCCCC3)c3ccc4c(=O)n(CCN(C)C)c(=O)n2c4c13 test_value="0.03 µM"
compound=Cc1nc2c(N3CCCC3)nc(N3CCNCC3)nc2nc1NCc1ccccc1 test_value="2.95 µM"
compound=COc1cc2c3c(n(CCCBr)c(=O)c2cc1OC)-c1ccc(F)cc1C3=O test_value="> 100 µM"
compound=CS(=O)(=O)N(CCC#N)c1ccc(C=O)cc1 test_value="> 100 µM"
compound=Nc1c(C(=O)N/N=C/c2ccc(-c3cc(Cl)c(Cl)cc3Cl)o2)cnn1-c1ccnc2c(C(F)(F)F)cccc12 test_value="> 100 µM"
compound=NC(=O)c1ccccc1NC(=O)c1ccccc1Cl test_value="> 100 µM"
compound="CC1[C@@H]2CC=C3[C@H]4CCC5Cc6nc7c(nc6C[C@@]5(C)C4(O)CC(=O)[C@]32CO[C@]12OC(C)(C)CC2O)CC1CC[C@@H]2C3=C[C@H]4O[C@@]5(O[C@@](C)(CO)C[C@@H]5O)C(C)[C@@]4(O)[C@]3(C)[C@@H](O)CC2[C@]1(C)C7 (stereo not given in full)" test_value="> 3.6 µM"
compound=CCOC(=O)C(C(=O)OCC)C(=O)c1ccccc1C(=O)c1ccccc1 test_value="> 100 µM"
compound=O=C1C2=C(SCCS2)C(=O)c2c(Sc3ccc(Cl)cc3)c(Sc3ccc(Cl)cc3)c(Sc3ccc(Cl)cc3)c(Sc3ccc(Cl)cc3)c21 test_value="> 100 µM"
compound="CSc1ccc(SC2c3ccc(C)cc3Oc3nc(N)c(C#N)c(N)c32)cc1 (stereo not given)" test_value="3.28 µM"
compound=O=C(c1ccc(O)c([N+](=O)[O-])c1)c1ccc(O)c([N+](=O)[O-])c1 test_value="> 100 µM"
compound=O=C(O)CCc1ccc2c(c1)CC1(Cc3ccccc3C1)C2 test_value="> 100 µM"
compound="CCCN(CCC)C1CCc2c(ccc3cc[nH]c23)C1 (stereo not given)" test_value="59.9 µM"
compound=CC(C)(C)OC(=O)N1[C@@H]2Cc3ccc(N)cc3[C@@]1(C)c1ccccc12 test_value="47.2 µM"
compound=O=C(COc1cccc(/C=C2\Oc3ccc4ccccc4c3C2=O)c1)c1ccc(Cl)cc1 test_value="> 100 µM"
compound=CC1=CCC[C@H]2[C@](C)(CC3=CC(=O)C(Sc4ccccc4)=CC3=O)[C@@H](C)CC[C@]12C test_value="41 µM"
compound="CCOC(=O)CCC(NC(=O)Cc1ccc(Oc2nc3ccccc3nc2-c2ccccc2)cc1)C(=O)OCC (stereo not given)" test_value="> 100 µM"
compound="O=[N+]([O-])c1ccc(N2N=C(c3ccc4ccccc4c3O)CC2c2ccc(Cl)cc2)c([N+](=O)[O-])c1 (stereo not given)" test_value="> 100 µM"
compound=S=c1sc2cscc2s1 test_value="32.8 µM"
compound="COC(=O)C1=CON2C3CC4CC(C3)CC(C4)C12C (stereo not given)" test_value="> 100 µM"
compound=CC(=O)OCCCCn1cc(Cn2ccc(=O)n(Cc3cn(CCCCOC(C)=O)nn3)c2=O)nn1 test_value="> 100 µM"
compound=CN[C@@H](C)[C@@H](O)c1ccccc1 test_value="> 100 µM"
compound=CCCC(=O)NC(Nc1ccc(F)cc1)(C(F)(F)F)C(F)(F)F test_value="> 100 µM"
compound=Cc1ncc(C(=O)Nc2ccc(CN3CCN(C)CC3)c(C(F)(F)F)c2)cc1C#Cc1c(N)ncc2ccccc12 test_value="0.899 µM"
compound=CCOC(=O)C(C)(C)Oc1ccc2c(-c3ccc(Cl)cc3)c(-c3ccc(Cl)cc3)c(=O)oc2c1 test_value="> 100 µM"
compound=N[C@H](CCC(=O)NCP(=O)(O)O)C(=O)O test_value="> 100 µM"
compound=Cc1cc(O)cc(O)c1C(=O)O[C@]1(C)C(=O)C=C2C=C(/C=C/C(=O)O)OC=C2C1=O test_value="> 100 µM"
compound="O=C(NC1C2CC3CC(C2)CC1C3)/C(Cl)=C1/Sc2ccccc2NC1=O (stereo not given)" test_value="> 100 µM"
compound=N#Cc1ccc(Oc2cccc(Oc3ccccc3)c2)cc1C#N test_value="> 100 µM"
compound=O=C1CS[C@@](CC(c2ccc(Cl)cc2)c2ccc(Cl)cc2)(c2ccc(Cl)cc2)N1 test_value="> 100 µM"
compound=NC(=Nc1ccccc1)c1ccccc1N test_value="> 100 µM"
compound="COC(=O)c1ccccc1C1=C([N+](=O)[O-])C(c2ccccc2)C(C#N)=C(N)O1 (stereo not given)" test_value="> 100 µM"
